Recorded values, source patent US8859584B2.

# targetOrSystem: human TRPV1 (Homo sapiens)
# Construct: expressed in transfected cells
# assayProcedure: Capsaicin Activation Assay (FLIPR intracellular Ca2+, recombinant HEK293 cells)
# Type: cell-based
# recordedConditions: recombinant HEK293 cells expressing hTRPV1; 50 nM capsaicin; read-out: human TRPV1 capsaicin IC50
measuredProperty: log10 IC50 (log10 of the value in µM)

In [3]: df
Out[3]:
                                    compound  recordedvalue
 0  O=C(Nc1cccc2c1C[C@H](O)C2)N[C@@H]1CCOc2c(F)cc(F)cc21           0.68
 1  O=C(Nc1ccc(F)c2c1C[C@H](O)C2)N[C@@H]1CC(CF)(CF)Oc2cc(OC(F)(F)F)ccc21          -0.43
 2  O=C(Nc1ccc(F)c2c1C[C@@H](O)C2)N[C@@H]1CC(CF)(CF)Oc2cc(OC(F)(F)F)ccc21          -0.38
 3  CC1(C)C[C@@H](NC(=O)Nc2ccc(F)c3c2C[C@@H](O)C3)c2ccc(C(F)(F)F)cc2O1          -0.89
 4  O=C(Nc1cccc2c1C[C@H](O)C2)N[C@@H]1CC(CF)(CF)Oc2c(F)cc(F)cc21          -0.52
 5  C[C@]1(CF)C[C@@H](NC(=O)Nc2c(F)ccc3c2C[C@@H](O)C3)c2ccc(Cl)cc2O1          -1.48
 6  CCC1(CC)C[C@@H](NC(=O)Nc2cccc3c2C[C@H](O)C3)c2ccc(Cl)c(Cl)c2O1          -0.62
 7  CC1(C)Oc2ccc(F)cc2CC1NC(=O)Nc1cccc2c1C[C@H](O)C2 (stereo partly shown)          -1.09
 8  O=C(Nc1cccc2c1C[C@@H](O)C2)N[C@@H]1CC(CF)(CF)Oc2c(Cl)cccc21          -0.92
 9  CC1(C)C[C@@H](NC(=O)Nc2cccc3c2C[C@H](O)C3)c2ccccc21          -0.85
10  CC1(C)C[C@@H](NC(=O)Nc2ccc(F)c3c2C[C@@H](O)C3)c2cccc(C(F)(F)F)c2O1          -1.21
11  O=C(Nc1cccc2c1C[C@H](O)C2)N[C@@H]1COc2ccc(Cl)cc2C1          -1.01
12  CC1(C)C[C@@H](NC(=O)Nc2cccc3c2C[C@H](O)C3)c2cccc(OC(F)(F)F)c2O1          -1.85
13  CC1(C)C[C@@H](NC(=O)Nc2ccc(F)c3c2C[C@H](O)C3)c2ccc(F)c(F)c2O1          -0.12
14  CC1(C)C[C@@H](NC(=O)Nc2cccc3c2C[C@@H](O)C3)c2ccc(C(F)(F)F)cc2O1          -1.92
15  O=C(Nc1cccc2c1C[C@@H](O)C2)N[C@@H]1CC(CF)(CF)Oc2ccccc21           0.20

====

# targetOrSystem: human TRPV1 (Homo sapiens)
# Construct: expressed in transfected cells
# assayProcedure: Capsaicin Activation Assay (FLIPR intracellular Ca2+, recombinant HEK293 cells)
# Type: cell-based
# recordedConditions: recombinant HEK293 cells expressing hTRPV1; 50 nM capsaicin; read-out: human TRPV1 capsaicin IC50
pIC50: −log10 of the molar value.
measuredProperty: pIC50

>>> print(df.to_string())
                                   compound  measuredproperty  recordedvalue
0  O=C(Nc1cccc2c1C[C@@H](O)C2)N[C@@H]1CC(CF)(CF)Oc2ccc(F)cc21             pIC50           5.85
1  Cc1cccnc1N1CC=C(C(=O)Nc2ccc(S(=O)(=O)C(F)(F)F)cc2)CC1 [E, reference compound]             pIC50           7.00
2  CCC1(CC)C[C@@H](NC(=O)Nc2cccc3c2C[C@H](O)C3)c2ccc(F)cc2O1             pIC50           7.89
3  CC1(C)C[C@@H](NC(=O)Nc2ccc(F)c3c2C[C@@H](O)C3)c2ccc(F)c(Cl)c2O1             pIC50           7.19
4  O=C(Nc1cccc2c1C[C@H](O)C2)N[C@H]1CCOc2cc(OC(F)(F)F)ccc21             pIC50           4.39
5  CCC1(CC)C[C@@H](NC(=O)Nc2cccc3c2C[C@H](O)C3)c2ccccc2O1             pIC50           7.66
6  O=C(Nc1cccc2c1C[C@H](O)C2)N[C@@H]1CC(CF)(CF)Oc2ccc(F)cc21             pIC50           6.24
7  O=C(Nc1cccc2c1C[C@H](O)C2)N[C@@H]1CCc2cc(Cl)ccc21             pIC50           7.60

====

# targetOrSystem: human TRPV1 (Homo sapiens)
# Construct: expressed in transfected cells
# assayProcedure: Capsaicin Activation Assay (FLIPR intracellular Ca2+, recombinant HEK293 cells)
# Assay type: cell-based
# recordedConditions: recombinant HEK293 cells expressing hTRPV1; 50 nM capsaicin; read-out: human TRPV1 capsaicin IC50
// assign YES if IC50 falls strictly below 700 nM, else NO (ties count as NO)

>>> df
                                    compound              targetorsystem  grouplabel
 0  O=C(Nc1cccc2c1C[C@H](O)C2)N[C@@H]1CC(CF)(CF)Oc2cc(Cl)ccc21  human TRPV1 (Homo sapiens)         YES
 1  O=C(Nc1cccc2c1C[C@H](O)C2)N[C@@H]1CC2(CCC2)Oc2ccc(F)cc21  human TRPV1 (Homo sapiens)         YES
 2  O=C(Nc1cccc2c1C[C@H](O)C2)N[C@H]1CC(CF)(CF)Oc2cc(Cl)ccc21  human TRPV1 (Homo sapiens)          NO
 3  O=C(Nc1cccc2c1C[C@H](O)C2)N[C@@H]1CC(CF)(CF)Oc2cc(F)ccc21  human TRPV1 (Homo sapiens)         YES
 4  O=C(Nc1cccc2c1C[C@@H](O)C2)N[C@@H]1CCOc2cc(OC(F)(F)F)ccc21  human TRPV1 (Homo sapiens)         YES
 5  O=C(Nc1cccc2c1CC(O)C2)NC1c2ccccc2OCC1Cc1ccccc1 (centres unmarked)  human TRPV1 (Homo sapiens)          NO
 6  COc1ccc(C2COc3ccccc3C2NC(=O)Nc2cccc3c2CC(O)C3)cc1 (centres unmarked)  human TRPV1 (Homo sapiens)          NO
 7  O=C(Nc1ccc(F)c2c1CC(O)C2)NC1CCc2cc(C(F)(F)F)ccc21 (centres unmarked)  human TRPV1 (Homo sapiens)         YES
 8  O=C(Nc1cccc2c1C[C@H](O)C2)N[C@@H]1CCOc2c1cccc2C(F)(F)F  human TRPV1 (Homo sapiens)         YES
 9  C[C@]1(CF)C[C@@H](NC(=O)Nc2ccc3c(c2)C(O)C3)c2ccccc2O1 (some centres unmarked)  human TRPV1 (Homo sapiens)          NO
10  CC1(C)C[C@@H](NC(=O)Nc2cccc3c2C[C@H](O)C3)c2ccccc2O1  human TRPV1 (Homo sapiens)         YES
11  O=C(NCC1COc2ccc(F)cc2C1)Nc1cccc2c1C[C@H](O)C2 (some centres unmarked)  human TRPV1 (Homo sapiens)         YES
12  O=C(Nc1ccc(F)c2c1C[C@H](O)C2)N[C@@H]1CCOc2c(OC(F)(F)F)cccc21  human TRPV1 (Homo sapiens)         YES
13  O=C(Nc1ccc(F)c2c1C[C@@H](O)C2)N[C@@H]1CC(CF)(CF)Oc2ccccc21  human TRPV1 (Homo sapiens)          NO
14  O=C(Nc1cccc2c1CC(O)C2)NC1c2ccccc2OCC1Cc1ccc(Cl)c(Cl)c1 (centres unmarked)  human TRPV1 (Homo sapiens)          NO

====

# targetOrSystem: human TRPV1 (Homo sapiens, UniProt Q8NER1)
# Construct: expressed in transfected cells
# Sequence (Q8NER1 whole entry): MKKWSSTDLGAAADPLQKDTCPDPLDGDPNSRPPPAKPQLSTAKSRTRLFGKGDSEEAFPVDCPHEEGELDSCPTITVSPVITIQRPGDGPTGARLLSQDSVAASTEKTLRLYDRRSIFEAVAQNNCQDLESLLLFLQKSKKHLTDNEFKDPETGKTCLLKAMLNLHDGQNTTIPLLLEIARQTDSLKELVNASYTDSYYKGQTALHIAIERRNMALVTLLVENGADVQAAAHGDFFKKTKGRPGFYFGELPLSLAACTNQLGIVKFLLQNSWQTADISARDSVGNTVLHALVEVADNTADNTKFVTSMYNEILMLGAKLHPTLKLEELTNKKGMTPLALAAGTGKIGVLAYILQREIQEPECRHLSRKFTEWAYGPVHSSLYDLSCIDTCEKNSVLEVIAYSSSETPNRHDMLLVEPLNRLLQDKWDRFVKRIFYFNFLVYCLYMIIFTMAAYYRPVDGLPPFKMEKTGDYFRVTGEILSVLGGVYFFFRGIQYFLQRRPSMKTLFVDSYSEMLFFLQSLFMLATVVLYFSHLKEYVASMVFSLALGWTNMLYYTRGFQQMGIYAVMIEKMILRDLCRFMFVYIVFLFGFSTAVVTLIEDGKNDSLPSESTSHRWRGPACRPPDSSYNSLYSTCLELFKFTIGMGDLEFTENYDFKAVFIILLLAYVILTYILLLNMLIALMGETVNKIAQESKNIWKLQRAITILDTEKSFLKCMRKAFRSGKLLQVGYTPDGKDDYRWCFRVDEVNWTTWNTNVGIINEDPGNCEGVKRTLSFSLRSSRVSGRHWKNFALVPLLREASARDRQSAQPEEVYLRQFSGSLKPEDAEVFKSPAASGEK
# assayProcedure: Capsaicin Activation Assay (FLIPR intracellular Ca2+, recombinant HEK293 cells)
# Type: cell-based
# recordedConditions: recombinant HEK293 cells expressing hTRPV1; 50 nM capsaicin; read-out: human TRPV1 capsaicin IC50
pIC50: −log10 of the molar value.
measuredProperty: pIC50

>>> print(df.to_string())
                                   compound  reportedrelation  recordedvalue
0  O=C(Nc1cccc2c1C[C@H](O)C2)N[C@@H]1CC(CF)(CF)Oc2cc(OC(F)(F)F)ccc21 [Example 31]                 =           7.39
1  O=C(Nc1c(F)ccc2c1C[C@@H](O)C2)N[C@@H]1CC(CF)(CF)Oc2cc(C(F)(F)F)ccc21 [Example 95]                 =           6.77
2  CC1(C)C[C@@H](NC(=O)Nc2cccc3c2C[C@H](O)C3)c2cccc(C(F)(F)F)c2O1 [Example 29]                 =           7.82
3  O=C(Nc1cccc2c1C[C@H](O)C2)NC1COc2cc(Cl)ccc2C1 (some centres unmarked) [Example 99]                 =           6.24
4  CCC1(CC)C[C@@H](NC(=O)Nc2cccc3c2C[C@H](O)C3)c2ccc(Cl)cc2O1 [Example 54]                 =           7.12
5  COc1ccc2c(c1)OC(c1ccc(Cl)cc1)CC2NC(=O)Nc1cccc2c1CC(O)C2 (centres unmarked) [Example 122]                 =           6.15
6  CC1(C)C[C@H](NC(=O)Nc2cccc3c2C[C@H](O)C3)c2cc(F)ccc2O1 [Example 104]                 <           4.42
7  O=C(Nc1cccc2c1C[C@H](O)C2)N[C@@H]1CCc2cc(C(F)(F)F)ccc21 [Example 40]                 =           8.15
